These measurements were taken from patent US8450300B2.

test: Dose escalation study, single/multiple dose and loading dose regimens: pharmacokinetics; type: in vivo, human; details: human, in vivo, 1100 mg, Period 2 Day 6, 1100 mg BID
quantity: Vd/F (L)
One number for each entry, in L.

IN: Dear colleague, I am looking for the recorded Vd/F of the following compound: CC(=O)O[C@H]1C[C@@]2(C)[C@@H](C[C@@H](O)[C@H]3[C@@]4(C)CC[C@@H](O)[C@@H](C)[C@@H]4CC[C@@]32C)/C1=C(\CCC=C(C)C)C(=O)O [CEM-102, Sodium fusidate]
OUT: 12.7

----------
assay: Single oral dose bioavailability study, fed/fasted crossover, plasma fusidic acid; settings: human, in vivo, 500 mg, 500 mg single oral dose, fed, read-out: t1/2, arithmetic mean ± SD (converted)
quantity: half-life (h)
One number for each entry, in h.

IN: Dear colleague, I am looking for the recorded half-life of the following compound: CC(=O)O[C@H]1C[C@@]2(C)[C@@H](C[C@@H](O)[C@H]3[C@@]4(C)CC[C@@H](O)[C@@H](C)[C@@H]4CC[C@@]32C)/C1=C(\CCC=C(C)C)C(=O)O [CEM-102, Sodium fusidate]
OUT: 11.5

----------
assay: Dose escalation study, single/multiple dose and loading dose regimens: pharmacokinetics; format: in vivo, human; conditions: human, in vivo, 550 mg
quantity: Tmax

IN: Dear colleague, I am looking for the recorded Tmax of the following compound: CC(=O)O[C@H]1C[C@@]2(C)[C@@H](C[C@@H](O)[C@H]3[C@@]4(C)CC[C@@H](O)[C@@H](C)[C@@H]4CC[C@@]32C)/C1=C(\CCC=C(C)C)C(=O)O [CEM-102, Sodium fusidate]
OUT: 3 h

----------
experiment: Dose escalation study, single/multiple dose and loading dose regimens: pharmacokinetics; type: in vivo, human; conditions: human, in vivo, 2200 mg, Period 1 Day 1, single dose 2200 mg; read-out: Tmax, median
quantity: Tmax (h)
Give bare numbers, in h.

IN: Dear colleague, I am looking for the recorded Tmax of the following molecule: CC(=O)O[C@H]1C[C@@]2(C)[C@@H](C[C@@H](O)[C@H]3[C@@]4(C)CC[C@@H](O)[C@@H](C)[C@@H]4CC[C@@]32C)/C1=C(\CCC=C(C)C)C(=O)O [CEM-102, Sodium fusidate]
OUT: 6

----------
Experiment: Single oral dose bioavailability study, fed/fasted crossover, plasma fusidic acid
Conditions: human, in vivo, 500 mg, 500 mg single oral dose, fed, read-out: AUC0-t, geometric mean (CV %)
Method: This was a single-center, Phase 1, double-blind, randomized, 3 period, fed/fasted crossover bioequivalence study designed to evaluate the relative bioavailability and safety and tolerability of a single oral dose of CEM-102 500 mg compared to Fucidin® 500 mg in healthy subjects. Subjects were randomized in equal numbers to the 4 treatment sequences (Table 3). […]
quantity: AUC(0-t)
Answer with the number, then the unit.

IN: Dear colleague, I am looking for the recorded AUC(0-t) of the following compound: CC(=O)O[C@H]1C[C@@]2(C)[C@@H](C[C@@H](O)[C@H]3[C@@]4(C)CC[C@@H](O)[C@@H](C)[C@@H]4CC[C@@]32C)/C1=C(\CCC=C(C)C)C(=O)O [CEM-102, Sodium fusidate]
OUT: 269 µg·h/mL

----------
test: Dose escalation study, single/multiple dose and loading dose regimens: pharmacokinetics; type: in vivo, human; conditions: human, in vivo, 1100 mg, Period 2 Day 6, 1100 mg BID; read-out: AUC(0-12), mean
quantity: AUC(0-t) (µg·h/mL)
Answers are plain numbers, in µg·h/mL.

IN: Dear colleague, I am looking for the recorded AUC(0-t) of the following compound: CC(=O)O[C@H]1C[C@@]2(C)[C@@H](C[C@@H](O)[C@H]3[C@@]4(C)CC[C@@H](O)[C@@H](C)[C@@H]4CC[C@@]32C)/C1=C(\CCC=C(C)C)C(=O)O [CEM-102, Sodium fusidate]
OUT: 2530
